Biological target: α-chymotrypsin from bovine pancreas (Bos taurus)
Endpoint Name: IC50 (µM)

1. O=C(N[C@@H](Cc1c[nH]c2ccccc12)C(=O)O)C(=O)c1c[nH]c2ccc(Br)cc12    16.3
2. O=C(N[C@H](Cc1c[nH]c2ccccc12)C(=O)O)C(=O)c1c[nH]c2ccc(Br)cc12    6.3

----------
Molecular target: porcine pancreatic elastase (Sus scrofa, UniProt P00772)
Construct: high-purity porcine pancreatic elastase (Sigma, Melbourne, Victoria, Australia, E0258); purchased Sigma E0258
Sequence (P00772 27-266): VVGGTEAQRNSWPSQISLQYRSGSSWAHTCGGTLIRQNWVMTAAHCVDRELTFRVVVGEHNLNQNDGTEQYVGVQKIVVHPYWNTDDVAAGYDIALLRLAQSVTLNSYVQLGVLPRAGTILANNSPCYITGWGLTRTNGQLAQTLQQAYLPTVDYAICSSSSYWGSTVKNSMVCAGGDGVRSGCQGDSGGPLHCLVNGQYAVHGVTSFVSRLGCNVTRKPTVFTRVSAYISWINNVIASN
Assay: Serine protease assay, elastase
Assay type: biochemical
Settings: remaining enzyme activity
Endpoint Name: % enzyme activity @ 10 µM, elastase (%)

1) O=C(N[C@H](Cc1ccc(O)cc1)C(=O)O)C(=O)c1c[nH]c2cc(Br)ccc12 [Compound 52, 6-bromoindolyl-3-glyoxyl-D-tyrosine]    97.1
2) C[C@H](NC(=O)C(=O)c1c[nH]c2cc(Br)ccc12)C(=O)O [Compound 27, 6-bromoindolyl-3-glyoxyl-L-alanine]    109.6
3) CC(C)[C@@H](NC(=O)C(=O)c1c[nH]c2cc(Br)ccc12)C(=O)O [Compound 56, 6-bromoindolyl-3-glyoxyl-D-valine]    104.4
4) CC(C)[C@H](NC(=O)C(=O)c1c[nH]c2ccc(Br)cc12)C(=O)O [Compound 53, 5-bromoindolyl-3-glyoxyl-L-valine]    101.3
5) N=C(N)NCCC[C@@H](NC(=O)C(=O)c1c[nH]c2cc(Br)ccc12)C(=O)O [Compound 32, 6-bromoindolyl-3-glyoxyl-D-arginine]    102.3
6) O=C(N[C@@H](CO)C(=O)O)C(=O)c1c[nH]c2cc(Br)ccc12 [Compound 44, 6-bromoindolyl-3-glyoxyl-L-serine]    99.0
7) C[C@@H](NC(=O)C(=O)c1c[nH]c2cc(Br)ccc12)C(=O)O [Compound 28, 6-bromoindolyl-3-glyoxyl-D-alanine]    107.4
8) O=C(N[C@@H](Cc1c[nH]c2ccccc12)C(=O)O)C(=O)c1c[nH]c2ccc(Br)cc12 [Compound 45, 5-bromoindolyl-3-glyoxyl-L-tryptophan]    94.0
9) O=C(N[C@H](Cc1ccc(O)cc1)C(=O)O)C(=O)c1c[nH]c2ccc(Br)cc12 [Compound 50, 5-bromoindolyl-3-glyoxyl-D-tyrosine]    95.3
10) N=C(N)NCCC[C@H](NC(=O)C(=O)c1c[nH]c2cc(Br)ccc12)C(=O)O [Compound 31, 6-bromoindolyl-3-glyoxyl-L-arginine]    99.3
11) O=C(N[C@@H](Cc1ccc(O)cc1)C(=O)O)C(=O)c1c[nH]c2cc(Br)ccc12 [Compound 51, 6-bromoindolyl-3-glyoxyl-L-tyrosine]    100.3
12) CC(C)[C@H](NC(=O)C(=O)c1c[nH]c2cc(Br)ccc12)C(=O)O [Compound 55, 6-bromoindolyl-3-glyoxyl-L-valine]    88.9
13) O=C(N[C@@H](Cc1c[nH]c2ccccc12)C(=O)O)C(=O)c1c[nH]c2cc(Br)ccc12 [Compound 47, 6-bromoindolyl-3-glyoxyl-L-tryptophan]    89.5
14) CC(C)[C@@H](NC(=O)C(=O)c1c[nH]c2ccc(Br)cc12)C(=O)O [Compound 54, 5-bromoindolyl-3-glyoxyl-D-valine]    105.4
15) O=C(N[C@H](Cc1c[nH]c2ccccc12)C(=O)O)C(=O)c1c[nH]c2cc(Br)ccc12 [Compound 48, 6-bromoindolyl-3-glyoxyl-D-tryptophan]    91.1
16) O=C(N[C@@H](Cc1ccc(O)cc1)C(=O)O)C(=O)c1c[nH]c2ccc(Br)cc12 [Compound 49, 5-bromoindolyl-3-glyoxyl-L-tyrosine]    99.5
17) N=C(N)NCCC[C@H](NC(=O)C(=O)c1c[nH]c2ccc(Br)cc12)C(=O)O [Compound 29, 5-bromoindolyl-3-glyoxyl-L-arginine]    100.8
18) N=C(N)NCCC[C@@H](NC(=O)C(=O)c1c[nH]c2ccc(Br)cc12)C(=O)O [Compound 30, 5-bromoindolyl-3-glyoxyl-D-arginine]    96.2
19) O=C(N[C@@H](CO)C(=O)O)C(=O)c1c[nH]c2ccc(Br)cc12 [Compound 43, 5-bromoindolyl-3-glyoxyl-L-serine]    101.4

----------
Tested on: HEK293 cells
Assay: HEK293 cell cytotoxicity
Format: cell-based
Details: 60 µM; human embryonic kidney cell line
Hi! Just check whether % Inhibition @ 60 µM, HEK293 is below 20%. Below gives Satisfied, equal or above gives Not satisfied.

1) O=C(N[C@@H](Cc1c[nH]c2ccccc12)C(=O)O)C(=O)c1c[nH]c2cc(Br)ccc12    Satisfied
2) O=C(N[C@@H](Cc1ccc(O)cc1)C(=O)O)C(=O)c1c[nH]c2cc(Br)ccc12    Not satisfied
3) O=C(N[C@@H](CO)C(=O)O)C(=O)c1c[nH]c2ccc(Br)cc12    Not satisfied
4) O=C(N[C@@H](Cc1c[nH]c2ccccc12)C(=O)O)C(=O)c1c[nH]c2ccc(Br)cc12    Not satisfied
5) O=C(N[C@H](Cc1c[nH]c2ccccc12)C(=O)O)C(=O)c1c[nH]c2cc(Br)ccc12    Satisfied

----------
Items are presented alongside their recorded % inhibition @ 20 µM, No DTT.
Target: SARS-CoV-2 3CLpro (Severe acute respiratory syndrome coronavirus 2, UniProt P0DTD1)
Construct: Each well contained 25 nM of SARS-CoV-2 3CL^Pro and eCFP-Venus biosensor (500 nM)
Assay: biochemical
Details: 20 µM; no DTT
Endpoint Name: % inhibition @ 20 µM, No DTT (%)

1. CC(C)[C@H](NC(=O)C(=O)c1c[nH]c2ccc(Br)cc12)C(=O)O    1.9
2. O=C(N[C@@H](Cc1ccc(O)cc1)C(=O)O)C(=O)c1c[nH]c2cc(Br)ccc12    23.3
3. C[C@H](NC(=O)C(=O)c1c[nH]c2cc(Br)ccc12)C(=O)O    1.9
4. O=C(N[C@@H](CO)C(=O)O)C(=O)c1c[nH]c2ccc(Br)cc12    105.5
5. CC(C)[C@@H](NC(=O)C(=O)c1c[nH]c2cc(Br)ccc12)C(=O)O    6.8
6. O=C(N[C@@H](Cc1c[nH]c2ccccc12)C(=O)O)C(=O)c1c[nH]c2cc(Br)ccc12    24.4
7. C[C@@H](NC(=O)C(=O)c1c[nH]c2cc(Br)ccc12)C(=O)O    1.7
8. O=C(N[C@@H](Cc1c[nH]c2ccccc12)C(=O)O)C(=O)c1c[nH]c2ccc(Br)cc12    21.8
9. O=C(N[C@H](Cc1ccc(O)cc1)C(=O)O)C(=O)c1c[nH]c2ccc(Br)cc12    6.1
10. O=C(N[C@@H](Cc1ccc(O)cc1)C(=O)O)C(=O)c1c[nH]c2ccc(Br)cc12    15.0
11. N=C(N)NCCC[C@H](NC(=O)C(=O)c1c[nH]c2ccc(Br)cc12)C(=O)O    13.8
12. O=C(N[C@H](Cc1c[nH]c2ccccc12)C(=O)O)C(=O)c1c[nH]c2cc(Br)ccc12    20.8
13. O=C(N[C@H](Cc1ccc(O)cc1)C(=O)O)C(=O)c1c[nH]c2cc(Br)ccc12    14.0
14. N=C(N)NCCC[C@H](NC(=O)C(=O)c1c[nH]c2cc(Br)ccc12)C(=O)O    4.3
15. N=C(N)NCCC[C@@H](NC(=O)C(=O)c1c[nH]c2cc(Br)ccc12)C(=O)O    3.0
16. CC(C)[C@@H](NC(=O)C(=O)c1c[nH]c2ccc(Br)cc12)C(=O)O    1.3
17. N=C(N)NCCC[C@@H](NC(=O)C(=O)c1c[nH]c2ccc(Br)cc12)C(=O)O    10.1
18. CC(C)[C@H](NC(=O)C(=O)c1c[nH]c2cc(Br)ccc12)C(=O)O    6.8
19. O=C(N[C@@H](CO)C(=O)O)C(=O)c1c[nH]c2cc(Br)ccc12    7.3

----------
Test system: P. falciparum Dd2
Assay: Antiplasmodial image-based assay, Dd2 strain
Type: cell-based, Plasmodium falciparum
Conditions: Plasmodium falciparum; chloroquine-resistant P. falciparum strain Dd2; control compounds
pIC50: −log10 of the molar value.
Endpoint Name: pIC50

1) CCN(CC)CCCC(C)Nc1ccnc2cc(Cl)ccc12 (stereo not drawn) [Chloroquine, reference compound]    6.16
2) COc1ccc(C[C@H](N)C(=O)N[C@H]2[C@@H](O)[C@H](n3cnc4c(N(C)C)ncnc43)O[C@@H]2CO)cc1 [Puromycin, reference compound]    7.06
3) C[C@H]1[C@@H](O)O[C@@H]2O[C@@]3(C)CC[C@H]4[C@H](C)CC[C@@H]1[C@@]24OO3 [Dihydroartemisinin, reference compound]    8.77

----------
Molecular target: α-chymotrypsin from bovine pancreas (Bos taurus)
Construct: α-chymotrypsin from bovine pancreas (Sigma, C4129); purchased Sigma C4129; host or cells: bovine pancreas
Test: Serine protease assay, chymotrypsin
Type: biochemical
Conditions: 10 µM; remaining enzyme activity
Protocol: Serine protease-inhibitory activities for 25–56 were determined in 96 well plates. Each inhibitor was initially tested in duplicate against elastase and chymotrypsin at 10 µM. […] Following this preincubation, 15 µL of 2 mM N-succinyl-Ala-Ala-Ala-p-nitroanilide (Sigma, S4760) in assay buffer was added to each well and kinetic measurement of absorbance at 405 nm (Tecan Spark Plate Reader, Zürich, Switzerland) was undertaken for 30 min. […]
Items are presented alongside their recorded % enzyme activity @ 10 µM, chymotrypsin.
Endpoint Name: % enzyme activity @ 10 µM, chymotrypsin

1) O=C(N[C@@H](Cc1c[nH]c2ccccc12)C(=O)O)C(=O)c1c[nH]c2ccc(Br)cc12    69.2%
2) CC(C)[C@@H](NC(=O)C(=O)c1c[nH]c2ccc(Br)cc12)C(=O)O    97.3%
3) O=C(N[C@@H](CO)C(=O)O)C(=O)c1c[nH]c2cc(Br)ccc12    97.1%
4) O=C(N[C@@H](CO)C(=O)O)C(=O)c1c[nH]c2ccc(Br)cc12    96.1%
5) C[C@H](NC(=O)C(=O)c1c[nH]c2cc(Br)ccc12)C(=O)O    94.4%
6) O=C(N[C@@H](Cc1ccc(O)cc1)C(=O)O)C(=O)c1c[nH]c2cc(Br)ccc12    91.8%
7) N=C(N)NCCC[C@@H](NC(=O)C(=O)c1c[nH]c2ccc(Br)cc12)C(=O)O    86.3%
